Catalogue of inhibition at 10 µM readings, one per entry.
- study target: recombinant human KLK5 (Homo sapiens, UniProt Q9Y337)
- Construct: purchased R & D Systems Inc
- experiment description: KLK5 enzymatic assay (Boc-V-P-R-AMC fluorogenic substrate)
- Assay type: biochemical
- details: 10 μM test compound; KLK5 8.1 nM; substrate 100 μM; mean ± SEM of triplicate; read-out: Anti-KLK5 Activity % Inhibition
// return numeric value only (unit: %, not printed)

For the molecule CC1OC(OC2CCC3(C)C(CCC4(C)C3C=CC35OCC6(CCC(C)(C)CC63)C(O)CC45C)C2(C)CO)C(O)C(OC2OC(CO)C(O)C(O)C2O)C1O (stereo not shown) , report inhibition at 10 µM.
-10.4

----------
Catalogue of pIC50 readings, one per entry.
- study target: recombinant human KLK5 (Homo sapiens, UniProt Q9Y337)
- Construct: purchased R & D Systems Inc
- Sequence (Q9Y337 23-293): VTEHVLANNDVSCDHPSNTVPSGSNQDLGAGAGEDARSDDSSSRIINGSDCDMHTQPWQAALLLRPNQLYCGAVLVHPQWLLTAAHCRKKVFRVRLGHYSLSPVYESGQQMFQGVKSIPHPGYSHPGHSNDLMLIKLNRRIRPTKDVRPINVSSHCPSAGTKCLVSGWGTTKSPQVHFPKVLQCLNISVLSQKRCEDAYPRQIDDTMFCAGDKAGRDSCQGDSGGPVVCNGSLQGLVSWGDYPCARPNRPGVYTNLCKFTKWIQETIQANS
- experiment description: KLK5 enzymatic assay (Boc-V-P-R-AMC fluorogenic substrate)
- Assay type: biochemical
- details: dose-response experiment of Figure 2; read-out: IC50 anti-KLK5 activity
FYI, pIC50 means -log10 of a concentration in mol per litre.

Example results:
smiles record | study target | pIC50
C[C@H]1O[C@@H](O[C@H]2CC[C@@]3(C)[C@@H](CC[C@]4(C)[C@@H]3C=CC3=C5CC(C)(C)CC[C@]5(CO)[C@@H](O)C[C@]34C)[C@]2(C)CO)[C@H](O)[C@@H](O[C@@H]2O[C@H](CO)[C@@H](O)[C@H](O)[C@H]2O)[C@H]1O | recombinant human KLK5 (Homo sapiens, UniProt Q9Y337) | 4.84
CC1(C)CC[C@]2(C(=O)O)CC[C@]3(C)C(=CC[C@@H]4[C@@]5(C)CC[C@H](O)C(C)(C)[C@@H]5CC[C@]43C)[C@@H]2C1 | recombinant human KLK5 (Homo sapiens, UniProt Q9Y337) | 5.19
C=C(CC[C@@H](C(=O)O)[C@H]1[C@H](O)C[C@@]2(C)C3=C(CC[C@]12C)[C@@]1(C)CC[C@H](O)C(C)(C)[C@@H]1CC3)C(C)C | recombinant human KLK5 (Homo sapiens, UniProt Q9Y337) | 4.71

We next turn to a different molecule, shown below.
For the molecule C=C(CC[C@@H](C(=O)O)[C@H]1[C@H](O)C[C@@]2(C)C3=C(CC[C@]12C)[C@@]1(C)CC[C@H](OC(C)=O)C(C)(C)[C@@H]1CC3)C(C)C , report pIC50.
5.23

----------
- study target: recombinant human KLK5 (Homo sapiens, UniProt Q9Y337)
- Construct: purchased R & D Systems Inc
- experiment description: KLK5 enzymatic assay (Boc-V-P-R-AMC fluorogenic substrate)
- Assay type: biochemical
- details: 10 μM test compound; KLK5 8.1 nM; substrate 100 μM; mean ± SEM of triplicate; read-out: Anti-KLK5 Activity % Inhibition
reported metric: inhibition at 10 µM (%)
// return numeric value only (unit: %, not printed)

Example results:
compound | study target | recorded measurement
C[C@H]1O[C@@H](O[C@H]2CC[C@@]3(C)[C@@H](CC[C@]4(C)[C@@H]3C=CC3=C5CC(C)(C)CC[C@]5(CO)[C@@H](O)C[C@]34C)[C@]2(C)CO)[C@H](O)[C@@H](O[C@@H]2O[C@H](CO)[C@@H](O)[C@H](O)[C@H]2O)[C@H]1O | recombinant human KLK5 (Homo sapiens, UniProt Q9Y337) | 39.6
C=C(CC[C@@H](C(=O)O)[C@H]1[C@H](O)C[C@@]2(C)C3=C(CC[C@]12C)[C@@]1(C)CC[C@H](O)C(C)(C)[C@@H]1CC3)C(C)C | recombinant human KLK5 (Homo sapiens, UniProt Q9Y337) | 36

We next turn to a different compound, shown below.
For the compound C=C(CC[C@@H](C(=O)O)[C@H]1[C@H](O)C[C@@]2(C)C3=CC[C@H]4C(C)(C)[C@@H](O)CC[C@]4(C)C3=CC[C@]12C)C(C)C [Dehydrotumulosic acid] , report inhibition at 10 µM.
-46.2
